# assay system: T1, human BR3 extracellular domain (human, UniProt Q96RJ3 1-61)
# T1 construct: biotinylated where used as tracer; also called hBR3-ECD; BR3-ECD
# assay notes: SPR, BR3 ECD on chip;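 further: Anti-BR3 antibodies passed over the chip at high flow in PBS with 0.05% polysorbate 20, on and off rates fitted together globally to a 1:1 binding model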
measured parameter: Kd (nM)
# number only, unit nM dropped from output

// known answers, use as guide
| binder | Kd / nM |
| --- | --- |
| Hu2.1-94 IgG (antibody, V domains shown, humanized IgG; also called h2.1-94) VH: EVQLVESGGGLVQPGGSLRLSCAASGDSITRGYWNWVRQAPGKGLEWVGYINYSGTTYYNPSLKSRFTISRDTSKNTLYLQMNSLRAEDTAVYYCATSHNTGEMDYWGQGTLVTVSS VL: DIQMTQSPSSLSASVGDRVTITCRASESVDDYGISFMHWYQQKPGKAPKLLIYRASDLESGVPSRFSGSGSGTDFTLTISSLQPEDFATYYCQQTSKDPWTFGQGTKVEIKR | 0.037 |
| chimeric 2.1 IgG (antibody, V domains shown, also called Ch 2.1 IgG; ch 2.1) VH: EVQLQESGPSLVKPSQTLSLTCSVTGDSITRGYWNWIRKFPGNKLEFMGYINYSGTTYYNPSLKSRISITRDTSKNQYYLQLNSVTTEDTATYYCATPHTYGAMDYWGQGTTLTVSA VL: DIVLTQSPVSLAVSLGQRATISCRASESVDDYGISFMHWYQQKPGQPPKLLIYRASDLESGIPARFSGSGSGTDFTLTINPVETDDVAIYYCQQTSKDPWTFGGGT | 0.04 |

Now for a further binder.
Identify Kd associated with the binder Hu2.1-40L Fab (Fab, V domains shown, Fab) VH: EVQLVESGGGLVQPGGSLRLSCAASGDSITRGYWNWVRQAPGKGLEWVGYINYSGTTYYNPSLKSRFTISRDTSKNTLYLQMNSLRAEDTAVYYCATTLPYGAMDYWGQGTLVTVSS VL: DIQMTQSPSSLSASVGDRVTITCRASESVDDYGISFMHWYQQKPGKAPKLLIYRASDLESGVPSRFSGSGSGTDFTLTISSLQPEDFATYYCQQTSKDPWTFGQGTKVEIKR
35.8
